# Test system: NucL
# Assay type: biochemical, Streptomyces sp. MBE174
# condition_description: summary of Table 3
test_readout: effect of the chemical substance on NucL activity (in words)

- smiles_input: "O=C(O)CN(CCN(CC(=O)O)CC(=O)O)CC(=O)O"
  recorded_value: "strongly inhibited"
- smiles_input: "[Cl-].[Cl-].[Zn+2]"
  recorded_value: "strongly inhibited"
- smiles_input: "[Cl][Cu][Cl]"
  recorded_value: "strongly inhibited"
